System: human breast adenocarcinoma cell line (MCF-7)
Experiment: MTT cytotoxicity assay on MCF-7
Type: cell-based
Settings: Homo sapiens, MCF7; MTT, 24 h incubation
Param label: returns Yes when IC50 < 300 µM, returns No otherwise, including exact equality.

Molecule: O=C(COc1ccc2c(c1)CCCC2)NN=c1scc(-c2cccc([N+](=O)[O-])c2)n1-c1ccccc1 [Compound 4i]
Assigned Category: No

Molecule: O=C(COc1ccc2c(c1)CCCC2)NN=c1scc(-c2ccccc2)n1C1CCCCC1 [Compound 4a]
Assigned Category: No

Molecule: O=C(COc1ccc2c(c1)CCCC2)NN=c1scc(-c2ccc(Br)cc2)n1-c1ccccc1 [Compound 4f]
Assigned Category: Yes

Molecule: O=C(COc1ccc2c(c1)CCCC2)NN=c1scc(-c2ccc(Cl)cc2)n1-c1ccccc1 [Compound 4g]
Assigned Category: No

Molecule: O=C(COc1ccc2c(c1)CCCC2)NN=c1scc(-c2ccc([N+](=O)[O-])cc2)n1-c1ccccc1 [Compound 4j]
Assigned Category: No

Molecule: COc1ccc(-c2csc(=NNC(=O)COc3ccc4c(c3)CCCC4)n2C2CCCCC2)cc1 [Compound 4b]
Assigned Category: Yes

Molecule: O=C(COc1ccc2c(c1)CCCC2)NN=c1scc(-c2cccc(Cl)c2Cl)n1-c1ccccc1 [Compound 4k]
Assigned Category: Yes

Origin of the recorded values: paper PMC6017121
